Let's look at some pKi data for 72 kDa type IV collagenase (Homo sapiens) that I collected from the literature.
Give bare numbers, as −log10 of the molar value.

Previously resolved entries follow.
COc1ccccc1SCC(CP(=O)(O)C(Cc1ccccc1)NC(=O)OCc1ccccc1)C(=O)NC(Cc1c[nH]c2ccccc12)C(N)=O (configuration not stated) | 4.52
Cc1cc(C)cc(COc2ccc3c(c2)NCCN([C@H](C)C(=O)NO)S3(=O)=O)c1 | 6.87
CCCC[C@@H](C[C@@H](CCc1ccc(-c2ccc(S(C)(=O)=O)cc2)cc1)C(=O)N[C@H](C(=O)NC)C(C)(C)C)C(=O)O | 7.72

Need pKi for each of these molecules.
1. CNC(=O)[C@H](Cc1ccc(OC)cc1)NC(=O)[C@@H](CC(=O)NO)Cc1ccc(O)cc1
2. CNC(=O)CC[C@@H](N[C@@H](CCc1ccccc1)C(=O)N[C@@H](CCCCNC(C)=O)C(=O)NC)C(=O)O
3. CCCCCCC(CC(=O)NO)S(=O)(=O)N[C@@H](Cc1ccc(OC)cc1)C(=O)NC (some centres not stated)
4. Cc1cc(COc2ccc([C@]3(C)CCN([C@H](C)C(=O)NO)C3=O)cc2)c2ccccc2n1 (stereo in doubt)
5. CCOc1cc(COc2ccc3c(c2)NCCN([C@H](CCC(=O)OC)C(=O)NO)S3(=O)=O)cc(OCC)c1
6. O=C(C[C@@H](Cc1ccc(-c2ccccc2CO)cc1)C(=O)N[C@H]1c2ccccc2C[C@H]1O)NO
7. COc1ccccc1SC[C@H](CP(=O)(O)[C@H](Cc1ccccc1)NC(=O)OCc1ccccc1)C(=O)N[C@@H](Cc1c[nH]c2ccccc12)C(N)=O

[out]
8.37
5.81
6.37
5.69
6.02
6.30
7.52

---

Let's look at some Ki data for UniProt P08253 that I collected from the literature.
One number for each entry, in nM.

Previously resolved entries follow.
O=C(NO)[C@H]1CCCN1S(=O)(=O)c1ccc(C#Cc2ccccc2)cc1 | 0.25
Cc1ccc(-c2nnnn2CCCOc2ccc(S(=O)(=O)C3(C(=O)NO)CCOCC3)cc2)nc1 | 400
CCCC[C@@H](C[C@@H](CCc1cccc(-c2ccsc2)c1)C(=O)N[C@H](C(=O)NC)C(C)(C)C)C(=O)O | 21

Need Ki for each of these compounds.
1. CCCC[C@@H](C[C@@H](CCc1ccc(-c2ccc(Cl)cc2Cl)cc1)C(=O)N[C@H](C(=O)NC)C(C)(C)C)C(=O)O
2. Cc1cc(C)cc(COc2ccc([C@]3(C)CCN([C@H](C)C(=O)NO)C3=O)cc2)c1
3. CNC(=O)[C@@H]1CCCCNC(=O)C[C@H](C(=O)O)N[C@@H](CCc2ccccc2)C(=O)N1

[out]
100
5810
2400

---

Let's look at some pKi data for 72 kDa type IV collagenase (Homo sapiens, UniProt P08253) that I collected from the literature.
Answers are plain numbers, as −log10 of the molar value.

Previously resolved entries follow.
CCCC[C@@H](C[C@@H](CCc1ccc(C2CCCO2)cc1)C(=O)N[C@H](C(=O)NC)C(C)(C)C)C(=O)O (some centres not stated) | 6.09
CNC(=O)[C@@H](Cc1cccc2ccccc12)NC(=O)[C@@H](CC(=O)NO)CC(C)C | 9.38

Need pKi for each of these compounds.
1. O=C(C[C@@H](CCCc1ccc(C(F)(F)F)cc1)C(=O)N[C@@H](CC1CCCCC1)C(=O)NCCc1ccccc1)NO
2. CCCC[C@@H](C[C@@H](CCc1ccc(-c2ccccc2F)cc1)C(=O)N[C@H](C(=O)NC)C(C)(C)C)C(=O)O
3. COc1ccc(S(=O)(=O)C(CCc2ccccc2)CC(=O)NO)cc1 (configuration not stated)
4. CC(C)C[C@H](NC(=O)[C@H](CCc1ccc(F)cc1)N[C@H](C)C(=O)O)C(=O)Nc1ccccc1
5. O=C(NO)[C@H]1C[C@H](NS(=O)(=O)c2ccc(-c3ccccc3)cc2)CN1S(=O)(=O)c1ccc(-c2ccccc2)cc1
6. CNC(=O)[C@@H](NC(=O)[C@H](c1ccc(OC)cc1)[C@H](CO)C(=O)NO)C(C)(C)C
7. CCCC[C@@H](C[C@@H](CCc1ccc(-c2ccc(-c3ncc[nH]3)cc2)cc1)C(=O)N[C@H](C(=O)NC)C(C)(C)C)C(=O)O
8. CNC(=O)[C@@H](Cc1cccc2cccnc12)NC(=O)[C@@H](CC(=O)NO)CC(C)C

[out]
9.52
7.21
7.52
6.66
7.27
9.30
7.03
8.89

[in] Quick check: pKi of O=C(O)CCNC(=O)[C@H](CC1CCCCC1)NC(=O)[C@H](CCCc1ccccc1)CP(=O)(O)O ?
[out] 7.33

---

Let's look at some log10 of Ki data for 72 kDa type IV collagenase (Homo sapiens, UniProt P08253) that I collected from the literature.
Would you kindly interpret these values as log10 of Ki expressed in µM?

Previously resolved entries follow.
C[C@H](C(=O)NO)N1CCNc2cc(-c3ccccc3C(F)(F)F)ccc2S1(=O)=O | 0.40
COc1ccc(S(=O)(=O)N(CCCCCNC(=O)CCCCC(=O)NCCNC(=O)CCN(CCNC(=O)OC(C)(C)C)CCC(=O)NCCNC(=O)CCCCC(=O)NCCCCCN([C@H](CO)C(=O)NO)S(=O)(=O)c2ccc(OC)cc2)[C@H](CO)C(=O)NO)cc1 | -1.80

Need log10 of Ki for each of these compounds.
1. CC(C)Cc1cccc(CC[C@H](N[C@H](C)C(=O)O)C(=O)N[C@@H](CC(C)C)C(=O)Nc2ccccc2)c1
2. O=C(C[C@@H](Cc1ccc2c(c1)OCO2)C(=O)N[C@H]1c2ccccc2C[C@H]1O)NO

[out]
1: 0.79; 2: 1.54

---

Let's look at some Ki data for 72 kDa type IV collagenase (Homo sapiens, UniProt P08253) that I collected from the literature.
One number for each entry, in nM.

Previously resolved entries follow.
Cc1ccc(CCC[C@H](CC(=O)NO)C(=O)N[C@@H](CC2CCCCC2)C(=O)NCCC(=O)NCCNS(=O)(=O)N2CCOCC2)cc1 | 0.03
CCCc1ccc(CC[C@H](N[C@H](C)C(=O)O)C(=O)N[C@@H](CC(C)C)C(=O)Nc2ccccc2)cc1 | 3.5
O=S(=O)(N[C@@H]1CCC[C@H]1S)c1ccc(Oc2ccccc2)cc1 | 67
O=S(=O)(N[C@@H]1CCC[C@@H]1S)c1ccc(Oc2ccccc2)cc1 (racemic) | 810
CCCC[C@@H](C[C@@H](CCc1ccc(-c2ccc(C(N)=O)cc2)cc1)C(=O)N[C@H](C(=O)NC)C(C)(C)C)C(=O)O | 38

Need Ki for each of these compounds.
1. CNC(=O)[C@H](Cc1c[nH]c2ccccc12)NC(=O)[C@@H](CC(=O)NOC)CC(C)C
2. NC(=O)C(Cc1c[nH]c2ccccc12)NC(=O)C(Cc1ccc2ccccc2c1)CP(=O)(O)C(Cc1ccccc1)NC(=O)OCc1ccccc1 (stereo not drawn)
3. CC(C)C[C@H](CC(=O)NO)C(=O)N[C@H]1c2ccccc2C[C@H]1O

[out]
[6.3, 330, 73]

---

Let's look at some pKi data for 72 kDa type IV collagenase (Homo sapiens) that I collected from the literature.
Give bare numbers, as −log10 of the molar value.

Previously resolved entries follow.
CCCc1ccc(CC[C@H](N[C@H](C)C(=O)O)C(=O)N[C@@H](CCCN=C(N)N)C(=O)Nc2ccccc2)cc1 | 8.52
CC(C)C[C@H](CC(=O)NO)C(=O)N[C@@H](Cc1c[nH]c2ccccc12)C(=O)NCCCN1CCOCC1 | 9.15

Shifting focus to the compound that follows.
[in] Quick check: pKi of CCCCCCCC[C@H](N[C@H](C)C(=O)O)C(=O)N[C@@H](CC(C)C)C(=O)Nc1ccccc1 ?
[out] 6.47

---

Let's look at some Ki data for 72 kDa type IV collagenase (Homo sapiens) that I collected from the literature.
One number for each entry, in nM.

Cc1cccc(-c2ccc(C[C@H](CC(=O)NO)C(=O)N[C@H]3c4ccccc4C[C@H]3O)cc2)c1 | 39
O=C(C[C@@H](Cc1ccc(O)cc1)C(=O)N[C@H]1c2ccccc2C[C@H]1O)NO | 408

Shifting focus to the compound that follows.
[in] Quick check: Ki of CCCC[C@@H](C[C@@H](CCc1ccc(-c2ccc(C(=O)O)cc2)cc1)C(=O)N[C@H](C(=O)NC)C(C)(C)C)C(=O)O ?
[out] 580

---

Let's look at some Ki data for 72 kDa type IV collagenase (Homo sapiens) that I collected from the literature.
One number for each entry, in nM.

Previously resolved entries follow.
Cc1ccc(CCC[C@H](CC(=O)NO)C(=O)N[C@@H](CC2CCCCC2)C(=O)NCCCCN(C)C)cc1 | 0.02
O=C(C[C@@H](Cc1ccc(-c2ccccc2Cl)cc1)C(=O)N[C@H]1c2ccccc2C[C@H]1O)NO | 27

Shifting focus to the compound that follows.
[in] Quick check: Ki of CCCC[C@@H](C[C@@H](CCc1ccc(Cc2ccccc2)cc1)C(=O)N[C@H](C(=O)Nc1ccccc1)C(C)(C)C)C(=O)O ?
[out] 16
